target_or_system: ALDH1A1 enzyme (Homo sapiens)
assay_notes: ALDH1A1 enzymatic assay (in vitro)
Format: biochemical
run_conditions: ALDH1A1 enzyme 20 nM, NAD+ 1 mM, propionaldehyde 80 μM; read-out: ALDH1A1 IC50
Procedure: Example 358. ALDH1A1 Enzymatic Assay (In Vitro Assay) 3 μL of ALDH1A1 enzyme (final concentration 20 nM) or assay buffer (100 mM HEPES pH 7.5 with 0.01% Tween 20) were dispensed into a 1,536-well solid-bottom black plate (Greiner Bio One, Monroe, N.C.) followed by pin-tool transfer (23 nL) of candidate inhibitors (final concentration range 968 pM to 57.2 μM) and control (Bay 11-7085, final concentration range 1.31 nM to 2.86 μM). […]
pIC50: −log10 of the molar value.
readout_type: pIC50

Below, each entry is followed by its recorded pIC50 result.
[[record]]
compound = "COc1ccc2ncc(C(=O)N3CCOCC3)c(N3CCC4(CC3)OCCO4)c2c1 [Example 39]"
value_measured = "6.00 to 6.30"

[[record]]
compound = "CS(=O)(=O)N1CCN(C(=O)c2ccc3ccccc3c2-c2ccc(C3(C#N)CC3)cc2)CC1 [Example 300]"
value_measured = "> 6.30"

[[record]]
compound = "N#CC1(c2ccc(-c3c(C(=O)N4CC5(CC(O)C5)C4)cnc4ccc(F)cc34)cc2)CC1 [Cpd. 335]"
value_measured = "> 6.30"

[[record]]
compound = "COc1ccc2c(N3CCC4(CC3)OCCO4)c(C(=O)N3CCN(S(C)(=O)=O)CC3)cnc2c1 [Example 129]"
value_measured = "> 6.30"


Q) For the compound CS(=O)(=O)C1CCN(C(=O)c2cnc3ccc(F)cc3c2-c2ccc(C3(C#N)CC3)cc2)CC1 [Example 266] , what pIC50 is on record?
A) > 6.30

Q) For the compound CC(=O)C1(c2ccccc2)CCN(c2c(C(=O)N3CCN(C(=O)C4CC4)CC3)cnc3ccc(F)cc23)CC1 [Example 215] , what pIC50 is on record?
A) > 6.30

Q) For the compound CN(C)S(=O)(=O)N1CCN(C(=O)c2cnc3ccc(Cl)cc3c2N2CCC(C#N)(c3ccccc3)CC2)CC1 [Cpd. 314] , what pIC50 is on record?
A) > 6.30

---

target_or_system: ALDH1A1 enzyme (Homo sapiens, UniProt P00352)
Sequence (P00352 whole entry): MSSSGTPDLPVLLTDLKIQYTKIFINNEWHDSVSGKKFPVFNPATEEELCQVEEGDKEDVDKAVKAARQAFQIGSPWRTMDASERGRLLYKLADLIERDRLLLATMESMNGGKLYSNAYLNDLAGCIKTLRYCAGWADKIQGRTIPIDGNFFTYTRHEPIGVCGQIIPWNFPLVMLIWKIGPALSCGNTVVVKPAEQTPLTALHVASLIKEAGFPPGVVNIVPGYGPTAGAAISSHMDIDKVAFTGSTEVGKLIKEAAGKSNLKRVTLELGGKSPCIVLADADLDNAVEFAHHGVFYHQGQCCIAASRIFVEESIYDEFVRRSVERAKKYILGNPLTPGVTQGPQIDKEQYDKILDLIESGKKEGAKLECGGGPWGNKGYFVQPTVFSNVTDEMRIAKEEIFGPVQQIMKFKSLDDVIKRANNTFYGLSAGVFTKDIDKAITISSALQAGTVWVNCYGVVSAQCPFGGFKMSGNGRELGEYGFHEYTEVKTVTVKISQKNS
assay_notes: ALDH1A1 enzymatic assay (in vitro)
Type: biochemical
run_conditions: ALDH1A1 enzyme 20 nM, NAD+ 1 mM, propionaldehyde 80 μM; read-out: ALDH1A1 IC50
pIC50: −log10 of the molar value.
The reader will find reported pIC50 values listed item by item below.

Below, each entry is followed by its recorded pIC50 result.
[[record]]
molecule = "CC(=O)C1(c2ccccc2)CCN(c2c(C(=O)N3CCC(S(C)(=O)=O)CC3)cnc3ccc(F)cc23)CC1"
value_measured = "> 6.30"

[[record]]
molecule = "CC1(C#N)CCN(c2c(C(=O)N3CCN(C(=O)C4CC4)CC3)cnc3cc(F)c(F)cc23)CC1"
value_measured = "> 6.30"

[[record]]
molecule = "CCNC(=O)N1CCN(C(=O)c2cnc3c(F)cc(F)cc3c2N2CCC(C)(C#N)CC2)CC1"
value_measured = "6.00 to 6.30"


Q) For the molecule "COc1ccc2ncc(C(=O)N3CCN(C(=O)C4CC4)CC3)c(N3CCC(C#N)CC3)c2c1" , what pIC50 is on record?
A) < 5.00

Q) For the molecule "CC(=O)C1(c2ccccc2)CCN(c2c(C(=O)N3CCN(C(=O)N(C)C)CC3)cnc3ccc(F)cc23)CC1" , what pIC50 is on record?
A) > 6.30

Q) For the molecule "CS(=O)(=O)C1CCN(C(=O)c2cnc3ccc(F)cc3c2N2CCC3(CC2)OCCO3)CC1" , what pIC50 is on record?
A) > 6.30

Q) For the molecule "CS(=O)(=O)N1CCN(C(=O)c2cnc3ccc(F)cc3c2N2CCC(Cc3ccccc3)CC2)CC1" , what pIC50 is on record?
A) > 6.30

Q) For the molecule "CCNC(=O)N1CCN(C(=O)c2cnc3cc(OC)ccc3c2N2CCC(C)(C#N)CC2)CC1" , what pIC50 is on record?
A) > 6.30

Recorded values, source patent US11795177B2.
